Reported growth by item:
# Tested on: UACC-62 melanoma
# protocolNotes: NCI-60 one-dose screen, 48 h (100 = growth as untreated, 0 = no growth, -100 = all killed)
# details: 10 µM unless noted
About 83,000 compounds went through this panel and 20% of them were active in at least one assay; those are over-represented in the sample as a whole.
Numbers only; they are read as %.

Worked set:
compound: CC(c1ccccc1)N(C)C (stereo not given)
growth, %: 94.5

compound: O=S(Cc1ccccc1)/C(=C/NC(=S)Nc1ccccc1)c1ccccc1 (stereo not given)
growth, %: 103

compound: O=C(NC1CCCCC1)c1ccc(Cl)cc1
growth, %: 97.6

compound: CNc1ccccc1C(N)=O
growth, %: 93.8

Q. Reported growth for COc1ccc2c(Cl)cc(NC(=O)Nc3c(C)cccc3C)nc2c1 : what is it?
A. 87.7

Data provenance: PubChem BioAssay (NCI)
